meta.source: patent US20220281976A1

Parameter: pKd. Scope: all listed entries.
Target: T1, human CD33 Fc fusion protein (human, UniProt P20138 18-259)
T1 construct: also called hCD33-Fc; human CD33/Fc chimera (R&D Systems)
T1 sequence (P20138 18-259 limits assumed): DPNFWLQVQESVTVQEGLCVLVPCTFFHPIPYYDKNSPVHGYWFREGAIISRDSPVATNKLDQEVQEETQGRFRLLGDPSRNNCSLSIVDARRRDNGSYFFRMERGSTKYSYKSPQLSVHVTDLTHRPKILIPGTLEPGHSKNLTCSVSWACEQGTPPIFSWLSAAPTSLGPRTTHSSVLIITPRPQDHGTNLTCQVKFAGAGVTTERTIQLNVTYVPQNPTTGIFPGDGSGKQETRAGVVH
Assay: ForteBio BLI or MSD-SET, IgG, avid;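 also: Anti-CD33 IgG affinity by BLI, IgG captured on AHQ sensors with antigen in solution and a one-to-one kinetic fit, or by MSD solution equilibrium titration with quadratic fit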
pKd: −log10 of the molar value.

Binder	pKd
C-72 (antibody, V domains shown, human IgG1) VH: QVQLVESGGGVVQPGRSLRLSCAASGFTFSSYGMHWVRQAPGKGLEWVAVIWYDGSNKYYADSVKGRFTISRDNSKNTLYLQMNSLRAEDTAVYYCAKEGGTYSDDFDLWGGGTLVTVSS VL: DIQMTQSPSSVSASVGDRVTITCRASQGISSWLAWYQQKPGKAPKLLIYAASSLQSGVPSRFSGSGSGTDFTLTISSLQPEDFATYYCQQASSFPLTFGGGTKVEIK	8.75
C-16 (antibody, V domains shown, human IgG1) VH: EVQLVESGGGLVQPGGSLRLSCAASGFTFSSYWMSWVRQAPGKGLEWVANINQDGSEKYYVDSVKGRFTISRDNAKNSLYLQMNSLRAEDTAVYYCAREGSDRHPFDYWGQGTLVTVSS VL: DIQMTQSPSSLSASVGDRVTITCRASQSISSYLNWYQQKPGKAPKLLIYAASSLQSGVPSRFSGSGSGTDFTLTISSLQPEDFATYYCQQAYLVPLTFGGGTKVEIK	8.87
